B1: library; numbered along this chain (parent)
chain: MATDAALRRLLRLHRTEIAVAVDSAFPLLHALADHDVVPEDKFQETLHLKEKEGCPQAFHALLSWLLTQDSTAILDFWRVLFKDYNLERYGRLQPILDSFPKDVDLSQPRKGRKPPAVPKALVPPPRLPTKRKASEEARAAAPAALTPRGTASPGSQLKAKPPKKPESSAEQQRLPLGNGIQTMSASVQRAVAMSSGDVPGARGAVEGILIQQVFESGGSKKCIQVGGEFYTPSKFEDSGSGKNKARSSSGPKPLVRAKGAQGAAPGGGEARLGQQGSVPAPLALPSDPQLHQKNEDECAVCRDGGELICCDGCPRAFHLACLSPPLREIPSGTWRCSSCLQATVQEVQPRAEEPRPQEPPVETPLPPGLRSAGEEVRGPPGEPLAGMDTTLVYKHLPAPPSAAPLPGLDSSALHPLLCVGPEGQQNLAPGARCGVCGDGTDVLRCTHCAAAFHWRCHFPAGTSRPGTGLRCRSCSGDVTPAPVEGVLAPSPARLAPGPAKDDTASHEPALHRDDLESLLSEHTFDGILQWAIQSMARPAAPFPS

# Variants of: B1
# experimental_protocol: AIRE transcriptional activation functional score (insulin promoter-GFP; nonsense median 0, synonymous median 1) (normalised score); higher = higher AIRE activity (more reporter activation)
# condition_label: with insulin promoter-GFP reporter in HEK293
quantity_measured: AIRE transcriptional activation functional score
# respond with the number and nothing more

R473C: 0.937
P492C: 0.756
I18W: 0.00284

Q: What AIRE transcriptional activation functional score value was documented for this variant, "K102H" ?
Ans: -1.63

Q: What AIRE transcriptional activation functional score value was documented for this variant, "K111Q" ?
Ans: -0.0716

Q: What AIRE transcriptional activation functional score value was documented for this variant, "G201A" ?
Ans: 0.802

Q: What AIRE transcriptional activation functional score value was documented for this variant, "Q425W" ?
Ans: 1.28

Q: What AIRE transcriptional activation functional score value was documented for this variant, "Q342L" ?
Ans: 0.929
